Target: DNA topoisomerase II alpha, full length (human, UniProt P11388 1-1531)
Sequence (P11388 whole entry): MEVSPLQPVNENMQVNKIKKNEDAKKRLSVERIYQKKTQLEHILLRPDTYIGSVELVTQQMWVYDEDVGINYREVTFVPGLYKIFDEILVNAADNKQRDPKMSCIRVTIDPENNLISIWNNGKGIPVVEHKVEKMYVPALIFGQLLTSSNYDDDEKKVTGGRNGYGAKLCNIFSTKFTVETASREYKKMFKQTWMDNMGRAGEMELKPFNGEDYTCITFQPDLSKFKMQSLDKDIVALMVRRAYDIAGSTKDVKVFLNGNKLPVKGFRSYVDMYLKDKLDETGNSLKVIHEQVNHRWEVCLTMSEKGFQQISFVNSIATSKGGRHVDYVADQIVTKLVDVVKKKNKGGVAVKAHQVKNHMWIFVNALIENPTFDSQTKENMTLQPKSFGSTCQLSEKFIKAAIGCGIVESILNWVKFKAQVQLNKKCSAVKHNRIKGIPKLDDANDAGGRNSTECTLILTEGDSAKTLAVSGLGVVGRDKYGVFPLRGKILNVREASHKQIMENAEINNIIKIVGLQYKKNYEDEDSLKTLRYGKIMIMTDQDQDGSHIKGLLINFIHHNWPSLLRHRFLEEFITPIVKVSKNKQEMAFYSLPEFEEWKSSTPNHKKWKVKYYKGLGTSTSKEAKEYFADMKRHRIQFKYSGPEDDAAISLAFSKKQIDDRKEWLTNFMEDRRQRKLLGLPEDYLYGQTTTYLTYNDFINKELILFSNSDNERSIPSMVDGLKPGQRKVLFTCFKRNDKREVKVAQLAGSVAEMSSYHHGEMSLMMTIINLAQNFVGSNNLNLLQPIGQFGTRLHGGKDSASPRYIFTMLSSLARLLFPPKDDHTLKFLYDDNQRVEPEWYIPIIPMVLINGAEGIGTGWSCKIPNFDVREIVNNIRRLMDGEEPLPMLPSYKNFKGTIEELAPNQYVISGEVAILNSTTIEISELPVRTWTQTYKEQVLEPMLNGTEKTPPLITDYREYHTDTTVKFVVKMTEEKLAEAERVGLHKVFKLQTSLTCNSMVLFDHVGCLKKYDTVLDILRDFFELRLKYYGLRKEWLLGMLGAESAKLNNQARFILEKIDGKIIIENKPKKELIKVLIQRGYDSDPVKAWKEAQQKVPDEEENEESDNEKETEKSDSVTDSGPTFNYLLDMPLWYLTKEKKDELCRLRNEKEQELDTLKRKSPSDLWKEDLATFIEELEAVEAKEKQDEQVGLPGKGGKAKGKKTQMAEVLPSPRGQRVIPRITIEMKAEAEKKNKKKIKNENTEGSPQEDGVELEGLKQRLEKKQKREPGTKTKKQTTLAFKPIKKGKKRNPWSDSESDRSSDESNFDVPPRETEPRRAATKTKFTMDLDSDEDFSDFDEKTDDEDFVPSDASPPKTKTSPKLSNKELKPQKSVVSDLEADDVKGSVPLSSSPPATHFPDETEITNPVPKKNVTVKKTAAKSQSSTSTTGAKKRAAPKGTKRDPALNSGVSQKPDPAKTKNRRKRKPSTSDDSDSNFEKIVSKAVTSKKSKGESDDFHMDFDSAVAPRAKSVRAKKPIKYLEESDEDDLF
Experiment: fluorescence anisotropy; 50 mM Tris pH 8, 5% glycerol, 50 mM KCl, 1% Triton X-100, 100 µg/ml acetylated BSA, 20°C; HEX oligo printed as 1 µM; 10 mM MgCl2 or CaCl2 where described
Conditions: protein: recombinant; chain copies: 2; blunt; as printed S2 is not the exact complement of S1: 2 mismatches at S1 positions 34-35 (possible typo)

[
  {
    "binder": "40 bp oligo AB (dsDNA) DNA 1: CGCAATCTGACAATGCGCTCATCGTCATCCTCGCGACGCG DNA 2: CGCGTGCCGAGGATGACGATGAGCGCATTGTCAGATTGCG",
    "Kd": "189 nM"
  }
]
